Values were extracted from ChEMBL document CHEMBL1201862.

# Tested on: RXF 631
# test.description: NCI tumour cell line growth inhibition, 48 h
Calls of active or inactive are those of the source. Cut-off read from the data, not from the text of the source: active = GI50 up to about 1.1 µM and inactive = higher.
recorded.metric: GI50

input: Return reported GI50; argument: Fc1cccc(Cl)c1C1SCc2nc3ccccc3n21 (centres undefined)
output: 25.3 µM (inactive)

input: Return reported GI50; argument: CC(C)(C)C(C#N)(C#N)c1ccc(C(C#N)(C#N)C(C)(C)C)nn1
output: > 100 µM (inactive)

input: Return reported GI50; argument: O=C(Nc1cc(Cl)c(Cl)cc1Cl)C(=O)C1C(=O)NC(=S)NC1=O
output: > 100 µM (inactive)

input: Return reported GI50; argument: CC(=O)O[C@H]1C=CC23OC(=O)[C@]1(C)[C@H]2[C@H](C(=O)O)C12CC(=O)[C@@](CO)(CC[C@H]13)C2
output: > 100 µM (inactive)
